Test: PSAC antagonists in infected red cells, primary screen, cell-based, P. falciparum Indochina, OD700, 1 h (AID 1154)
Conditions: P. falciparum Indochina infected RBC osmotic lysis, higher = more signal, called active from +8 up or from −8 down
Tick YES if z-score is 1 or greater. Tick NO if z-score is less than 1.

In [3]: df
Out[3]:
                                   compound  group
0  CC(C)C[C@@H]1NC(=O)[C@@H]2C[C@H](C(=O)NCc3ccc(F)cc3)[C@H](c3cccc(OCCO)c3)N2C1=O    YES
1  CC(C)C(CO)N1C(=O)[C@@H]2C3C(=O)OCCC/C=C\[C@H]3OC23C=CCN(CCN2CCOCC2)C(=O)[C@@H]13 (stereo not given in full)     NO
2  [N-]=[N+]=NCc1ccccc1[C@@H]1OC(c2ccc(OCCCO)cc2)=N[C@]1(Cc1ccccc1)C(=O)NCC(O)CO (stereo not given in full)    YES
3  C=C(CC1([C@@H](NP(=O)(c2ccccc2)c2ccccc2)[C@H]2C[C@@H]2CCCC)CC1)c1ccccc1     NO
4  C=CC(=C)[C@H]1Oc2ccccc2S(=O)(=O)N2CCC[C@@H]12    YES
5  CC(C)N1C(=O)C[C@@](C(=O)NCC(F)(F)F)(c2ccc([N+](=O)[O-])cc2)[C@H]1c1ccc(CO)cc1     NO
6  CCOC(=O)C1=C[C@@H](C(C)(C)C)N(S(=O)(=O)c2ccc(C)cc2)[C@H]1c1ccc(F)cc1     NO
7  COc1ccc(C(O)C2C=CC3C(=O)N(Cc4ccccc4)C(=O)C3N2n2cnnc2)cc1OCc1ccccc1 (stereo not given)    YES
8  C=CC[C@@]1(C(=O)NCCN2CCOCC2)N=C(c2ccc(OCCCO)cc2)O[C@@H]1c1ccccc1N=[N+]=[N-]    YES
9  CC(C)NC(=O)[C@@H]1c2ccccc2C(=O)N(C2Cc3ccccc3C2)[C@H]1c1ccc(CO)cc1    YES
